Reported viability at 10 µM values for the following compounds.
# Tested on: expanded OPCs
# assay.method.text: cells
# run.parameters: Rattus norvegicus, 72 h, read-out: 10 µM (% DMSO), alamarBlue viability, NCC library compound at 10 µM, sheet "All Tox data"
property.name: viability at 10 µM (%)

compound	unit.of.measurement	endpoint.value
O=[N+]([O-])c1cccc2cn[nH]c12	%	89.1
CN1CC[C@]23c4c5ccc(O)c4O[C@H]2c2[nH]c4ccccc4c2C[C@@]3(O)[C@H]1C5	%	12
CC1(C)O[C@@H]2C[C@H]3[C@@H]4C[C@H](F)C5=CC(=O)C=C[C@]5(C)[C@@]4(F)[C@@H](O)C[C@]3(C)[C@]2(C(=O)CO)O1 [Fluocinolone Acetonide]	%	111
CC(C)(C)NC(=O)[C@@H]1C[C@@H]2CCCC[C@@H]2CN1C[C@@H](O)[C@H](Cc1ccccc1)NC(=O)[C@H](CC(N)=O)NC(=O)c1ccc2ccccc2n1	%	14.5
CS(=O)(=O)c1ccc(-c2cc(Br)sc2-c2ccc(F)cc2)cc1	%	10.7
O=C(O[C@@H]1C[C@@H]2C[C@H]3C[C@H](C1)N2CC3=O)c1c[nH]c2ccccc12	%	63.4
CC(C)CC(N(C)C)C1(c2ccc(Cl)cc2)CCC1 (stereo not shown)	%	84.4
